Target: T1, 人Siglec-15抗原 (Siglec-15蛋白胞外段) (human, UniProt Q6ZMC9 20-263)
T1 construct: extracellular domain
T1 sequence (looked up): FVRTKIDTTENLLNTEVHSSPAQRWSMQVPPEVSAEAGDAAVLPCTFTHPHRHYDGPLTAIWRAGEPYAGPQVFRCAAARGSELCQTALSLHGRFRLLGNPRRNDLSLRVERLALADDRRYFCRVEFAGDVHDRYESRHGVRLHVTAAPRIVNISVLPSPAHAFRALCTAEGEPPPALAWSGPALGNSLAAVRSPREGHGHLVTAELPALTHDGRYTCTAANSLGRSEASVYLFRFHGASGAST
Assay: phage supernatant ELISA, screening of single clones

- binder: "MA-III 噬菌体单克隆抗体 (phage-displayed scFv) (scFv, V domains shown, also called 抗Siglec-15噬菌体单克隆抗体) VH: QVKLEESGPELVKPGASVKMSCKASGYIFTSYVMHWVRQKPGQGLEWIGYIDPYNDRTKYNEKFKGKATLTSDKSSSTAYMELSSLTSEDSAVYYCARSGDYGSSFDYWGQGTTLTVSS VL: DIVMTQSPSSLSASLGERVSLTCRASQEISGYLSWLQQKPDGTIKRLIYAASTLDSGVPKRFSGSRSGSDYSLTISSLESEDFADYYCLQYASYPYTFGGGTKLEIK"
  binding result: "binds"
- binder: "MA-IV 噬菌体单克隆抗体 (phage-displayed scFv) (scFv, V domains shown, also called 抗Siglec-15噬菌体单克隆抗体) VH: EVKLQESGAELVKPGASVKLSCIASGFNIKDTFIHWVKQRPEQGLEWIGRIDPASGYTKYDPKFQGKATITTDTSSNTAYLQLSSLTSEDTAVYYCTRSGSYVSFVYWGQGTLVTVSA VL: DIVMTQTPASLAVSLGQRATISCKASQSVDYDGDSYMNWYQQKPGQPPKLLIYAASNLESGIPARFSGSGSGTDFTLNIHPVEEEDAATYYCQQSNEDPWTFGGGTKLEIK"
  binding result: "binds"
- binder: "MA-I 噬菌体单克隆抗体 (phage-displayed scFv) (scFv, V domains shown, also called 抗Siglec-15噬菌体单克隆抗体) VH: EVKLEQSGPELVKPGASVKISCKASGYTFTDYNMFWVKQSHGKTLEWIGYIYPDNGGTGYNQNFKSKATLTVDNSSSSAYMELRSLTSEDSAVYYCARSEYDYFDYWGQGTTLTVSS VL: DIVLTQSTSSLSASLGDRVTISCRASQDISNYLNWYQQKPDGTVKLLIYYTSRLHSGVPSRFSGSGSGTDYSLTISNLEQEDIATYFCQQGNTLPLTFGAGTKLELK"
  binding result: "binds"
- binder: "MA-II 噬菌体单克隆抗体 (phage-displayed scFv) (scFv, V domains shown, also called 抗Siglec-15噬菌体单克隆抗体) VH: EVKLEQSGGGLVKPGGSLKLSCAASGFTFSSYAMSWVRQSPEKRLEWVAEIISGGSHTYYPDTVTGRFTISRDDAKNTLYLEMSSLRSEDTAMYYCARDGNYGYAMDYWGQGTSVTVSS VL: DIVITQTPAIMSASPGEKVTMTCRASSSVSSSYLHWYQQKSGASPKLWIYSTSNLASGVPARFSGGGSGTSYSLTISSVEAEDDATYYCQQWSGYPWTFGGGTKLEIK"
  binding result: "binds"
